pIC50 reference
TEST TARGET: Nav1.7 sodium channels (human SCN9A gene) (Homo sapiens (Human), UniProt Q15858)
Sequence (Q15858 whole entry): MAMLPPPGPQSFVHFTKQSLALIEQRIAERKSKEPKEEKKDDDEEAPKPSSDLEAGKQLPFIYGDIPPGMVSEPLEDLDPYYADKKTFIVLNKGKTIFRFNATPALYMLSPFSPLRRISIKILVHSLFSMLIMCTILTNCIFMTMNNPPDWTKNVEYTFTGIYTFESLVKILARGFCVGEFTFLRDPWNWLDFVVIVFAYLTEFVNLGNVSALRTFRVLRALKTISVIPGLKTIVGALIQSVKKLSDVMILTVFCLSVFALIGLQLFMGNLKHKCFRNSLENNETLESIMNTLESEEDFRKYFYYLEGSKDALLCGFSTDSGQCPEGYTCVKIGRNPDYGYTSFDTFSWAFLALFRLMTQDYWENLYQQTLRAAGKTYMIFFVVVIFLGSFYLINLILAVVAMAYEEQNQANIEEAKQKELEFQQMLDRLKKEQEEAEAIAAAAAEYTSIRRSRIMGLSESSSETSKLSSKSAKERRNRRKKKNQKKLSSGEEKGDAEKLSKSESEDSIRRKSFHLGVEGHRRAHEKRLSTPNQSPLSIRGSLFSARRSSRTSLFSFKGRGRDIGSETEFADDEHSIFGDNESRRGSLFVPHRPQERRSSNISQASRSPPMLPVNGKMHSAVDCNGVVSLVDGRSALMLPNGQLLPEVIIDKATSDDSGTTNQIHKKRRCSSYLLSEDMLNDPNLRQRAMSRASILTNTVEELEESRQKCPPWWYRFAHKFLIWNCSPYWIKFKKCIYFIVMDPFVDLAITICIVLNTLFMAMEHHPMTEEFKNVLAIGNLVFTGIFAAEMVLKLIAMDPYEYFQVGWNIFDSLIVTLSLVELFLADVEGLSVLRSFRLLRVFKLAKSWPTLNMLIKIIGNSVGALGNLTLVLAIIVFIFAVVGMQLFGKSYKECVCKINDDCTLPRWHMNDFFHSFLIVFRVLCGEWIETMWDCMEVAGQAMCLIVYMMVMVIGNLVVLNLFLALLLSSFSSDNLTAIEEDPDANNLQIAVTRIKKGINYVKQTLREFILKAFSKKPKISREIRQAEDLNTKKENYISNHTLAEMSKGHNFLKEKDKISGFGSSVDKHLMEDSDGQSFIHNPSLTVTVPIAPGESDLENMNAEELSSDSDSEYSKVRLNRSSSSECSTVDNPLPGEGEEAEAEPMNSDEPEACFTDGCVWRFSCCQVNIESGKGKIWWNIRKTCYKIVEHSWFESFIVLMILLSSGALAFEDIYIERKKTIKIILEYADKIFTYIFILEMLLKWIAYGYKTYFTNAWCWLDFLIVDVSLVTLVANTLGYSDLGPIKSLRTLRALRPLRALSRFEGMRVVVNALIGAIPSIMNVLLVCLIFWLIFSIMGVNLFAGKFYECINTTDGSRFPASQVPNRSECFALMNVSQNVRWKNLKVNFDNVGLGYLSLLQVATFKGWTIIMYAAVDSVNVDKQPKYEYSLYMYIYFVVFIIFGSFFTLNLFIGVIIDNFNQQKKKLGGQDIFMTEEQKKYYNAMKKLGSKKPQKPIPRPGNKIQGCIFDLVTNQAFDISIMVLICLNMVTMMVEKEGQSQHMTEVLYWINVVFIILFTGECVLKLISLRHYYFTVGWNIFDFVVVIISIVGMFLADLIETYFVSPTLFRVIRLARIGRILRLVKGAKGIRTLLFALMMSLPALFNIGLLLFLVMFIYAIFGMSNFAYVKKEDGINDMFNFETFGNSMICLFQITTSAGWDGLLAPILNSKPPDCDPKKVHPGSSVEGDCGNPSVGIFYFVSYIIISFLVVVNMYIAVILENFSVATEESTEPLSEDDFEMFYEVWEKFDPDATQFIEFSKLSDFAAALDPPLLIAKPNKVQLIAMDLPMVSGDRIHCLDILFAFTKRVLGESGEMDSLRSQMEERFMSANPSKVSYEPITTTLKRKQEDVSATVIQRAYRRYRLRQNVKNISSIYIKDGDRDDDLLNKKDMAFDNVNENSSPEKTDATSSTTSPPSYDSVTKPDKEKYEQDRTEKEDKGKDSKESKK
PROTOCOL: Automated patch clamp (IonWorks Barracuda) of Nav1.7 stably expressed in CHO cells
Assay type: cell-based
CONDITION DETAILS: tonic (resting) state block, CHO cells; read-out: Tonic state IC50
pIC50: −log10 of the molar value.

Q: Entry COC[C@@H](O)CNC1(C)CCN(c2nnc(-c3cccc(Cl)c3Cl)c(N)n2)C1 (stereo partly drawn) , system Nav1.7 sodium channels (human SCN9A gene) (Homo sapiens (Human), UniProt Q15858): what pIC50 was measured?
Result: < 3.70

Q: What would you report for `CC(C)OC[C@H](O)CN1CCN(c2nnc(-c3cccc(Cl)c3Cl)c(N)n2)CC1` ?
Result: 3.75

Q: What would you report for `COC(=O)COCCOCCNc1nnc(-c2cccc(Cl)c2Cl)c(N)n1` ?
Result: < 3.70
